- test details: in vitro
- applied conditions: human, hela cells, % viability
measured parameter: viability at 28.5 h, 10 µM (%)
// return numeric value only (unit: %, not printed)

Example compounds with recorded viability at 28.5 h, 10 µM:
| compound | reported |
| --- | --- |
| Cc1nn(C)c(Cl)c1S(=O)(=O)Nc1nn(Cc2ccc(C#N)cc2)c2ccccc12 [CBK048185] | 111 |
| c1ccc2c(c1)NCC21CCNCC1 [CBK022583] | 101 |
| CC(C)NC(=O)c1cc(C2CN(C(=O)CCc3ccccc3F)CCO2)nc2ccccc12 (stereo not shown) [CBK285893] | 109 |

Entry COc1ccc([C@@]23CC[C@H](NC(=O)CSc4nccn4C)C[C@@H]2N(C)CC3)cc1OC [CBK036444] , viability at 28.5 h, 10 µM reported as 84.7

compound COc1ccc(S(=O)(=O)NCCSCc2cccc(C)c2)cc1Cl [CBK268477] , viability at 28.5 h, 10 µM observed: 100
